Measured values drawn from paper PMC9386018 for this set.

protocol_description: Pharmacokinetic analysis of plasma after intravenous and oral dosing
condition_notes: female, CD-1, mouse, plasma, po, 400 mg kg^−1, Concentration (ng/mL), mice, single p.o. LP-182 400 mg kg^−1, 0.167 h; analyte = label; individual animals
assay_readout: concentration at 0.167 h (ng/mL)
// return numeric value only (unit: ng/mL, not printed)

Given the molecule O=C(NOCCO)c1ccc(F)c(F)c1Nc1ccc(I)cc1F [PD0316684, reference compound] , what is its reported concentration at 0.167 h?
175

---

protocol_description: Pharmacokinetic analysis of plasma after intravenous and oral dosing
condition_notes: female, CD-1, mouse, plasma, po, 200 mg kg^−1, Concentration, Figure 6d; Time 7 h; individual replicates
assay_readout: concentration at 7 h (ng/mL)
Write the number in ng/mL without appending the unit.

Give the measured concentration at 7 h of O=C(NOCCO)c1ccc(F)c(F)c1Nc1ccc(I)cc1F [PD0316684, reference compound] .
201
